Target: T1, Pfs230 D1D2 (aa 587–889) (Plasmodium falciparum, UniProt P68874 587-889)
T1 chain: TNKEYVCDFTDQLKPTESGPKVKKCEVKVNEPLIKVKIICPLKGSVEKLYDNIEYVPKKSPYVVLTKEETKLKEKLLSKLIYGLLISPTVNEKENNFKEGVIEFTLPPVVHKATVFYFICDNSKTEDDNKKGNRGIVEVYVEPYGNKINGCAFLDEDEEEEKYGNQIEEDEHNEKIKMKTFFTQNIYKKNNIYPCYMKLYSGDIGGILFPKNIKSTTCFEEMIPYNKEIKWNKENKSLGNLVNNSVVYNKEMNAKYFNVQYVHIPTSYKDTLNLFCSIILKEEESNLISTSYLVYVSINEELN
Assay: BLI; representative curve
pKd: −log10 of the molar value.
observation_type: pKd

{"binder": "nanobody E11 (VHH) VHH: QVQLQESGGGLVQPGGSLRLSCAASGFTSDYYGIGWFRQAPGKEREGVACISSSDGSTYYADSVKGRSTISRDNAKNTVYLQMNSLKPEDTAVYYCAADLSGIGCTTAQAMDVIGDFGDFGSWGQGTQVTVSS", "readout_value": 8.62}
{"binder": "nanobody F5 (VHH) VHH: QVQLQESGGGLVQPGGSLRLSCAASGFTLDRYAIGWFRQAPGKEREGVSCISSSDGSTYYADSVKGRFTISRDNAKNTVYLQMNSLKPEDTAVYYCARDHGPCTVLADILYDYGMDYWGKGTQVTVSS", "readout_value": 8.95}
{"binder": "nanobody D11 (VHH) VHH: QVQLQESGGGLVQAGSSLRLSCAASGRTFSSYAMGWFRQAPGKEREFVAAIGWSGGTYYTDSVEGRFTISRDNAENTVYLQMNSLKPEDTAVYYCAAKASGSSWSERGYDYWGQGTQVTVSS", "readout_value": 7.81}
